tested on: E. coli; assay: Range of MIC for E. coli strains; conditions: Escherichia coli, 20 h, read-out: Range of MIC, E. coli (Mouse Serum)
Please provide measured MIC for the entries that follow.

1) CCCCN(CC(=O)Nc1cc(N(C)C)c2c(c1O)C(=O)C1=C(O)[C@]3(O)C(=O)C(C(N)=O)=C(O)[C@@H](N(C)C)C3CC1C2)C(=O)OCc1oc(=O)oc1-c1ccc(OC)cc1 (some centres unmarked) = 1 to 4 µg/mL
2) CN(C)c1cc(NC(=O)CN(C(=O)OCOC(=O)c2cccnc2)C(C)(C)C)c(O)c2c1C[C@H]1C[C@H]3[C@H](N(C)C)C(O)=C(C(N)=O)C(=O)[C@@]3(O)C(O)=C1C2=O = 0.5 to 2 µg/mL
3) CN(C)c1cc(NC(=O)CN(C(=O)OCOC(=O)c2ccc(F)cc2)C(C)(C)C)c(O)c2c1C[C@H]1C[C@H]3[C@H](N(C)C)C(O)=C(C(N)=O)C(=O)[C@@]3(O)C(O)=C1C2=O = 0.5 to 1 µg/mL
4) CC(C)CC(=O)OCOC(=O)N(CC(=O)Nc1cc(N(C)C)c2c(c1O)C(=O)C1=C(O)[C@]3(O)C(=O)C(C(N)=O)=C(O)[C@@H](N(C)C)[C@@H]3C[C@@H]1C2)C(C)(C)C = 0.25 to 1 µg/mL
5) CN(C)c1cc(NC(=O)CN(C(=O)OCOC(=O)c2cccn2C)C(C)(C)C)c(O)c2c1C[C@H]1C[C@H]3[C@H](N(C)C)C(O)=C(C(N)=O)C(=O)[C@@]3(O)C(O)=C1C2=O = 4 to 8 µg/mL
6) CN(C)c1cc(NC(=O)CN(C(=O)OCOC(=O)CC2CCCC2)C(C)(C)C)c(O)c2c1C[C@H]1C[C@H]3[C@H](N(C)C)C(O)=C(C(N)=O)C(=O)[C@@]3(O)C(O)=C1C2=O = 0.5 to 1 µg/mL
7) CN(C)c1cc(NC(=O)CN(C(=O)OCOC(=O)c2c3ccccc3cc3ccccc23)C(C)(C)C)c(O)c2c1C[C@H]1C[C@H]3[C@H](N(C)C)C(O)=C(C(N)=O)C(=O)[C@@]3(O)C(O)=C1C2=O = > 64 µg/mL

Okay, next one:
Please fill in: MIC reported for `CN(C)c1cc(NC(=O)CN(C(=O)OCOC(=O)C2CCCCC2)C(C)(C)C)c(O)c2c1C[C@H]1C[C@H]3[C@H](N(C)C)C(O)=C(C(N)=O)C(=O)[C@@]3(O)C(O)=C1C2=O` = 1 to 2 µg/mL
